Recorded measurements of GI50, one per entry
- Tested on: SK-MEL-28
- test: NCI tumour cell line growth inhibition, 48 h
Where a name gives a salt, the structure may show the parent alone. Activity calls are given as the source filed them. Cut-off read from the data, not from the text of the source: active = GI50 up to about 1.1 µM and inactive = higher.
outcome-measure: GI50

{"columns": ["compound", "outcome-measure", "recorded-result"],
 "data": [
  ["CCOC(=O)C1C=C1C(C)(C)O (centres undefined)", "GI50", "> 10 µM (inactive)"],
  ["CC1CC2C3CCC4=CC(=O)C=CC4(C)C3(F)C(O)CC2(C)C1(O)C(=O)COP(=O)(O)O (centres undefined)", "GI50", "> 100 µM (inactive)"],
  ["O=C1CCC2(c3ccc(F)cc3)Nc3cc(Cl)ccc3N12 (centres undefined)", "GI50", "> 100 µM (inactive)"],
  ["Oc1[nH]c(Nc2cccc(Br)c2)nc2ncnc1-2", "GI50", "> 100 µM (inactive)"],
  ["Cc1ccc(C(=O)/C=C/N2CCN(c3cccc(C(F)(F)F)c3)CC2)cc1", "GI50", "19.7 µM (inactive)"],
  ["CC(=O)NC(CCC(=O)C=[N+]=[N-])C(=O)O (centres undefined)", "GI50", "> 100 µM (inactive)"],
  ["CCOc1ccc(NCC2CC/C(=C\\c3ccccc3OC)C2=O)cc1 (centres undefined)", "GI50", "11 µM (inactive)"],
  ["CCOc1cn(C2OC(CO)C(O)C2O)c(=O)[nH]c1=O (centres undefined)", "GI50", "> 100 µM (inactive)"],
  ["COc1cccc(N2C(=O)C3CC(CC(C)(C)C)c4c([nH]c5ccccc45)C3C2=O)c1 (centres undefined)", "GI50", "> 10 µM (inactive)"],
  ["O=C(C#Cc1cnc(O)nc1O)c1ccccc1", "GI50", "10.9 µM (inactive)"],
  ["O=C1NCN(c2ccccc2)C12CCN(CCc1ccc3[nH]c(=S)[nH]c3c1)CC2", "GI50", "4.12 µM (inactive)"],
  ["O=C(O)c1c[nH]c2c(=O)[nH]cnc12", "GI50", "> 100 µM (inactive)"],
  ["COc1cccc2ccc(C(=O)c3ccccc3)nc12", "GI50", "88.9 µM (inactive)"],
  ["CC1(C)CC2=C(SC3C=CC=CC3N2)C(=O)C1C(=O)C(N)=O (centres undefined)", "GI50", "> 100 µM (inactive)"],
  ["Cc1nccc2c1[nH]c1cc(O)ccc12 [HARMOL HYDROCHLORIDE]", "GI50", "> 100 µM (inactive)"],
  ["Cn1c2cc(O)cc(O)c2c(=O)c2c([N+](=O)[O-])cccc21", "GI50", "> 100 µM (inactive)"],
  ["NCCS [CYSTEAMINE HYDROCHLORIDE]", "GI50", "> 100 µM (inactive)"],
  ["O=C1C=C(O)c2nc(O)ccc2C1=O", "GI50", "> 100 µM (inactive)"],
  ["C#C[C@@]1(O)CCCC2=CC(=O)C[C@]21C", "GI50", "> 100 µM (inactive)"],
  ["O/N=C1/C(=C/c2ccc(Oc3ccccc3)cc2)CCCC1C(NO)c1ccc(Oc2ccccc2)cc1 (centres undefined)", "GI50", "61.2 µM (inactive)"],
  ["COC(=O)N/N=C(/CCN1CCCC1)CC(c1ccccc1)c1c(O)c2ccccc2oc1=O (centres undefined)", "GI50", "> 100 µM (inactive)"],
  ["O=c1[nH]c(=S)[nH]cc1CN1CCOCC1", "GI50", "> 100 µM (inactive)"],
  ["CCc1cccc(C)c1NC(=O)CCc1nnc(SC)o1", "GI50", "> 100 µM (inactive)"],
  ["CCCC(Sc1ccccc1)P(=O)(c1ccccc1)c1ccccc1 (centres undefined)", "GI50", "42.1 µM (inactive)"]
]}

###

- Tested on: UACC-257
- test: NCI tumour cell line growth inhibition, 48 h
Activity calls are given as the source filed them. Cut-off read from the data, not from the text of the source: active = GI50 up to about 1.1 µM and inactive = higher.
outcome-measure: GI50

{"columns": ["compound", "outcome-measure", "recorded-result"],
 "data": [
  ["CCc1cccc(C)c1NC(=O)CCc1nnc(SC)o1", "GI50", "> 100 µM (inactive)"],
  ["O=C(/C=C\\c1ccc(Cl)cc1Cl)c1cccs1", "GI50", "19.5 µM (inactive)"],
  ["COc1ccc(-c2nc(N)c(C#N)c3c2CCSc2ccc(C)cc2-3)cc1OC", "GI50", "13.8 µM (inactive)"],
  ["O=C1C2=C(c3ccccc31)C(c1ccc(Cl)cc1)N1C(=O)CCSC1=N2 (configuration not stated)", "GI50", "> 100 µM (inactive)"],
  ["O=Nc1ccc(O)c2ncccc12", "GI50", "6.37 µM (inactive)"],
  ["COc1ccc(C(=O)Cn2c(C(=O)/C=C/c3ccco3)nc3ccccc32)cc1", "GI50", "27.4 µM (inactive)"],
  ["COc1ccc(C(=C2C=CC=C2)c2ccc(OC)cc2)cc1", "GI50", "34.4 µM (inactive)"],
  ["COc1ccc(CC#C/C=C/C(=O)NCC(C)C)cc1", "GI50", "> 100 µM (inactive)"],
  ["CC1(C)C(/C=N\\O)=[N+]([O-])C(C)(C)N1O", "GI50", "> 100 µM (inactive)"],
  ["Cn1nc(C(=O)N2CC(CCl)c3c2cc([N+](=O)[O-])c2ccccc32)cc1NC(=O)Nc1cc(C(=O)N2CC(CCl)c3c2cc([N+](=O)[O-])c2ccccc32)nn1C (configuration not stated)", "GI50", "> 100 µM (inactive)"],
  ["CC(C)CCC[C@@H](C)C1CCC2[C@@H]3CCC4C[C@@H](NS(C)(=O)=O)CC[C@]4(C)C3CC[C@@]21C (some centres not stated)", "GI50", "> 100 µM (inactive)"],
  ["C1COCCOP2(N3CC3)=NP(N3CC3)(=NP(N3CC3)(N3CC3)=N2)OCCOCCO1 (configuration not stated)", "GI50", "> 100 µM (inactive)"],
  ["Cc1cc(NCC2CC/C(=C\\C=C\\c3ccccc3)C2=O)no1 (configuration not stated)", "GI50", "57.8 µM (inactive)"],
  ["C=Cc1c(C)c(O)cc2c1-c1ccc(O)c(C)c1CC2", "GI50", "14.8 µM (inactive)"],
  ["CC(=O)Oc1ccc(O)c2c1CCCC2", "GI50", "39.9 µM (inactive)"],
  ["Oc1nc(S)nc2nc3c4cccnc4c4ccccc4c3nc12", "GI50", "> 100 µM (inactive)"],
  ["N#C[BH2-][n+]1cn(C2CC(OP(=O)(O)OCC3OC(n4cnc5c(N)ncnc54)CC3O)C(CO)O2)c2nc(N)[nH]c(=O)c21 (configuration not stated)", "GI50", "> 100 µM (inactive)"],
  ["CC(C)(C)OC(=O)Nc1cc(-c2ccccc2)co1", "GI50", "> 100 µM (inactive)"],
  ["Cc1cc(O)c2c(c1)CC(O)C1=C2C(=O)c2c(O)ccc(OC3CC(O)C(OC4CC(OC5CCC(O)C(C)O5)C(O)C(C)O4)C(C)O3)c2C1=O (configuration not stated)", "GI50", "1.57 µM (inactive)"],
  ["Nc1nc(N)c2ncn(CC3CCC(CO)C3)c2n1 (configuration not stated)", "GI50", "> 100 µM (inactive)"],
  ["O=C1OC(CCCl)(c2ccccc2)CC1CN1CCOCC1 (configuration not stated)", "GI50", "22.5 µM (inactive)"],
  ["CN(C)CCCNc1ccc2nnn3c4ccc(OC(=O)c5ccc([N+](=O)[O-])cc5)cc4c(=O)c1c23", "GI50", "11.7 µM (inactive)"]
]}

###

- Test system: MDA-N
- test: NCI tumour cell line growth inhibition, 48 h
Active and inactive are the calls of the source. No stated cut-off is given here; in the data, active = GI50 up to about 1.1 µM and inactive = higher. Numbered stars: 1 amine (or outer) side, 2 acyl side, 3 side chain; on linkers, the order of the positions; unused ones are H or OH. Bridge positions count the residues as written; N and C are the ends. Square brackets hold non-standard residues; d marks the D form. Peptide text beside a SMILES is read from it. I, II: the chains in the order shown. Actinocin(9to1) = Cc1c2oc3c(C)ccc(C(=O)[*:1])c3nc-2c(C(=O)[*:2])c(N)c1=O; X48 = O=C1CC(C(=O)[*:2])N([*:1])C1; NMeV = CN[CH](C(=O)O)C(C)C; Sar = CNCC(=O)O
Outcomes: active, inactive

{"columns": ["compound", "assigned-category"],
 "data": [
  ["COc1ccc(OC)c([N+](=O)[O-])c1-c1nc2sccn2c1/C=N/N=C(N)N", "inactive"],
  ["COC(=O)CCCC(=O)NC1=C(Nc2ccccc2)C(=O)c2ccccc2C1=O", "inactive"],
  ["Cc1c2oc3c(C)ccc(C(=O)NC4C(=O)NC(C(C)C)C(=O)N5CC(=O)CC5C(=O)N(C)CC(=O)N(C)C(C(C)C)C(=O)OC4C)c3nc-2c(C(=O)NC2C(=O)NC(C(C)C)C(=O)N3CC(=O)CC3C(=O)N(C)CC(=O)N(C)C(C(C)C)C(=O)OC2C)c(N)c1=O (stereo not drawn) (I: TV[X48][Sar][NMeV] / II: TV[X48][Sar][NMeV]; ester I:1-I:C, II:1-II:C; linker I:N-II:N via Actinocin(9to1); configuration not given here)", "active"]
]}
